Measured kon, listed per entry for reference.
biological target: human CD3 (huCD3ed) (human) (UniProt P07766); test: Biacore SPR, bispecific hIgG2dA format, 37 C; CD3 antigen not given
Sequence (P07766 23-126, chain 1 of 2): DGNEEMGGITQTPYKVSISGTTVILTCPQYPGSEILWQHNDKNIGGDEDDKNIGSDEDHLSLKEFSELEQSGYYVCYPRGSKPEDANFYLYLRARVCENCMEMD
Sequence (P04234 22-105, chain 2 of 2, further chain): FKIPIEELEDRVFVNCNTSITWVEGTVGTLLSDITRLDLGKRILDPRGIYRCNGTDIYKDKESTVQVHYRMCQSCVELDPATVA
Note: unit M⁻¹ s⁻¹ is implicit; provide only the numeric part.

Before answering, review these 2 worked examples.
h2B4-TK_Ep (bispecific antibody, part only; not given: anti-EpCam arm, constant regions, V domains shown, not shown: another chain or arm of the molecule; a dimerising Fc or GST; small tags and cut ends) VH: EVQLVESGGGLVQPGGSLRLSCAASGFTFSDYYMTWVRQAPGKGLEWVAFIRNRARGYTSDHNASVKGRFTISRDNAKNSLYLQMNSLRAEDTAVYYCARDRPSYYVLDYWGQGTTVTVSS VL: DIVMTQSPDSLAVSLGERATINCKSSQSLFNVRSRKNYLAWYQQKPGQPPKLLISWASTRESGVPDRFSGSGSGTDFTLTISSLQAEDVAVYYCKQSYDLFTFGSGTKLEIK | 687000
h25A8-C8_Ep (bispecific antibody, part only; not given: anti-EpCam arm, constant regions, V domains shown, not shown: another chain or arm of the molecule; a dimerising Fc or GST; small tags and cut ends) VH: EVQLVESGGGLVKPGGSLRLSCAASGFTFNTYAMNWVRQAPGKGLEWVGRIRSKINNYATYYAESVKGRFTISRDDSKNTLYLQMNSLKTEDTAVYYCVRHETLRSGISWFASWGQGTLVTVSS VL: QAVVTQEPSLTVSPGGTVTLTCRSSTGAVTTSNYANWVQQKPGQAPRGLIGGTNTRAPGTPARFSGSLLGGKAALTLSGAQPEDEAEYYCVLWYNNHWVFGGGTKLTVL | 1.2e+06

Query: What value of kon has been reported for the following binder? h25A8-B8_Ep (bispecific antibody, part only; not given: anti-EpCam arm, constant regions, V domains shown, not shown: another chain or arm of the molecule; a dimerising Fc or GST; small tags and cut ends) VH: EVQLVESGGGLVKPGGSLRLSCAASGFTFSTYAMNWVRQAPGKGLEWVGRIRSKINNYATYYAESVKGRFTISRDDSKNTLYLQMNSLKTEDTAVYYCVRHETLRSGISWFASWGQGTLVTVSS VL: QAVVTQEPSLTVSPGGTVTLTCRSSTGAVTTSNYANWVQQKPGQAPRGLIGGTNTRAPGTPARFSGSLLGGKAALTLSGAQPEDEAEYYCVLWYNNHWVFGGGTKLTVL
Reply: 1.19e+06
